// data source = ChEMBL document CHEMBL3286334

EC50 for assorted molecules
- SUBJECT_OF_TEST: Melanocortin receptor 4 (Homo sapiens)
- TEST_NAME: Agonist activity at wild type human melanocortin-4 receptor expressed in HEK293 cells co-transfected with CRE/beta-galactosidase reporter gene assessed as stimulatory response after 6 hrs
- Type: functional, cell-based

MOLECULE	UNITS	EC50
CC(=O)N[C@@H](CCCNC(=N)N)C(=O)N[C@H](Cc1ccc(I)cc1)C(=O)N[C@@H](CCCNC(=N)N)C(=O)N1Cc2ccccc2C[C@H]1C(N)=O	nM	57
CC(=O)N[C@@H](Cc1cnc[nH]1)C(=O)N[C@H](Cc1ccc(Cl)cc1)C(=O)N1Cc2ccccc2CC1C(=O)N[C@@H](Cc1ccc(I)cc1)C(N)=O (stereo partly specified)	nM	15
CC(=O)N[C@@H](CCCNC(=N)N)C(=O)N[C@H](Cc1ccc(I)cc1)C(=O)N1Cc2ccccc2CC1C(=O)N[C@@H](Cc1ccc(I)cc1)C(N)=O (stereo partly specified)	nM	203
CC(=O)N1Cc2ccccc2CC1C(=O)N[C@H](Cc1ccc(I)cc1)C(=O)N[C@@H](CCCNC(=N)N)C(=O)N[C@@H](Cc1ccc(I)cc1)C(N)=O (stereo partly specified)	nM	4.26
CC(=O)N[C@@H](CCCNC(=N)N)C(=O)N[C@H](Cc1ccc(Cl)cc1)C(=O)N1Cc2ccccc2C[C@H]1C(=O)N[C@H](Cc1ccc([N+](=O)[O-])cc1)C(N)=O	nM	0.21
CC(=O)N1Cc2ccccc2CC1C(=O)N[C@H](Cc1ccc(Cl)cc1)C(=O)N1Cc2ccccc2CC1C(=O)N[C@@H](Cc1ccc(I)cc1)C(N)=O (stereo partly specified)	nM	120

* * *

Listed below: EC50 values for each entry.
- SUBJECT_OF_TEST: Melanocortin receptor 4 (Homo sapiens, UniProt P32245, C271Y)
- Sequence (P32245 whole entry C271Y): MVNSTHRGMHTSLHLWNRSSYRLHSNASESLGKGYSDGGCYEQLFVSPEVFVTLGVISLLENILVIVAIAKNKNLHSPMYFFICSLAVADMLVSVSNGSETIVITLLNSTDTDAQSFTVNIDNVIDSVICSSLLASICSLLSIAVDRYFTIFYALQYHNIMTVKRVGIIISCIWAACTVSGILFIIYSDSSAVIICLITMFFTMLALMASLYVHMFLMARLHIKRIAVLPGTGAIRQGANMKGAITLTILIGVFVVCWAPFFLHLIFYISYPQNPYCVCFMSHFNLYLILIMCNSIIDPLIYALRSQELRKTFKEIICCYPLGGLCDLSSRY
- TEST_NAME: Agonist activity at human melanocortin-4 receptor C271Y mutant expressed in HEK293 cells co-transfected with CRE/beta-galactosidase reporter gene assessed as stimulatory response after 6 hrs
Where a SMILES comes first, the peptide text is derived from it. [ ]: non-standard residue; d: D form. Phe(4-I) = N[C@@H](Cc1ccc(I)cc1)C(=O)O; dPhe(4-I) = N[C@H](Cc1ccc(I)cc1)C(=O)O

COMPOUND	OPERATOR	EC50 / µM
CC(=O)N[C@@H](Cc1c[nH]cn1)C(=O)N[C@H](Cc1ccc(Cl)cc1)C(=O)N1Cc2ccccc2C[C@H]1C(=O)N[C@H](Cc1ccc([N+](=O)[O-])cc1)C(N)=O	=	0.082
CC(=O)N[C@@H](Cc1c[nH]cn1)C(=O)N[C@H](Cc1ccc(I)cc1)C(=O)N1Cc2ccccc2C[C@H]1C(=O)N[C@H](Cc1ccc([N+](=O)[O-])cc1)C(N)=O	=	0.19
CC(=O)N[C@@H](CCCNC(=N)N)C(=O)N[C@H](Cc1ccc(I)cc1)C(=O)N[C@@H](CCCNC(=N)N)C(=O)N[C@@H](Cc1ccc(I)cc1)C(N)=O	>	100
CC(=O)N[C@@H](CCCNC(=N)N)C(=O)N[C@H](Cc1ccc(Cl)cc1)C(=O)N1Cc2ccccc2C[C@H]1C(=O)N[C@H](Cc1ccc([N+](=O)[O-])cc1)C(N)=O	=	0.47
CC(=O)N[C@@H](Cc1cnc[nH]1)C(=O)N[C@H](Cc1ccc(I)cc1)C(=O)N[C@@H](CCCNC(=N)N)C(=O)N[C@@H](Cc1ccc(I)cc1)C(N)=O (Ac-H[dPhe(4-I)]R[Phe(4-I)]-NH2)	>	100
CC(=O)N[C@@H](CCCNC(=N)N)C(=O)N[C@H](Cc1ccc(Cl)cc1)C(=O)N[C@@H](CCCNC(=N)N)C(=O)N[C@@H](Cc1ccc(I)cc1)C(N)=O	>	100
CC(=O)N[C@@H](CCCNC(=N)N)C(=O)N[C@H](Cc1ccc(I)cc1)C(=O)N1Cc2ccccc2C[C@H]1C(=O)N[C@H](Cc1ccc([N+](=O)[O-])cc1)C(N)=O	=	19.7

* * *

- SUBJECT_OF_TEST: Melanocortin receptor 4 (Homo sapiens, UniProt P32245, L106P)
- Sequence (P32245 whole entry L106P): as the sequence (P32245 whole entry C271Y) above, with L106P, Y271C counted along it
- TEST_NAME: Agonist activity at human melanocortin-4 receptor L106P mutant expressed in HEK293 cells co-transfected with CRE/beta-galactosidase reporter gene assessed as stimulatory response after 6 hrs
- Type: functional, cell-based
pEC50: −log10 of the molar value. Where a SMILES comes first, the peptide text is derived from it. [ ]: non-standard residue; d: D form.
Kindly return y if reported pEC50 is no lower than 7; return n if it is lower.

COMPOUND	CAT
CC(=O)N[C@@H](Cc1c[nH]cn1)C(=O)N[C@H](Cc1ccc(I)cc1)C(=O)N1Cc2ccccc2C[C@H]1C(=O)N1Cc2ccccc2C[C@H]1C(N)=O	n
CC(=O)N[C@@H](CCCNC(=N)N)C(=O)N[C@H](Cc1ccc(I)cc1)C(=O)N1Cc2ccccc2C[C@H]1C(=O)N[C@H](Cc1ccc([N+](=O)[O-])cc1)C(N)=O	y
CC(=O)N[C@@H](Cc1ccc(O)cc1)C(=O)N[C@H](Cc1ccccc1)C(=O)N[C@@H](CCCNC(=N)N)C(=O)N[C@@H](Cc1c[nH]c2ccccc12)C(N)=O (Ac-Y[dF]RW-NH2)	n
CC(=O)N[C@@H](Cc1c[nH]cn1)C(=O)N[C@H](Cc1ccc(I)cc1)C(=O)N1Cc2ccccc2C[C@H]1C(=O)N[C@H](Cc1ccc([N+](=O)[O-])cc1)C(N)=O	y
CC(=O)N1Cc2ccccc2C[C@H]1C(=O)N[C@H](Cc1ccc(I)cc1)C(=O)N[C@@H](CCCNC(=N)N)C(=O)N[C@H](Cc1ccc([N+](=O)[O-])cc1)C(N)=O	n

* * *

- SUBJECT_OF_TEST: Melanocortin receptor 4 (Homo sapiens, UniProt P32245, L106P)
- TEST_NAME: Agonist activity at human melanocortin-4 receptor L106P mutant expressed in HEK293 cells co-transfected with CRE/beta-galactosidase reporter gene assessed as stimulatory response after 6 hrs
- Type: functional, cell-based
pEC50: −log10 of the molar value. Where a SMILES comes first, the peptide text is derived from it. [ ]: non-standard residue; d: D form.
Returns one of class 1 or class 0; class 1 when pEC50 is >= 6.

COMPOUND	SUBJECT_OF_TEST	CAT
CC(=O)N[C@@H](Cc1c[nH]cn1)C(=O)N[C@H](Cc1ccc(Cl)cc1)C(=O)N1Cc2ccccc2C[C@H]1C(=O)N[C@H](Cc1ccc([N+](=O)[O-])cc1)C(N)=O	Melanocortin receptor 4 (Homo sapiens, UniProt P32245, L106P)	class 1
CC(=O)N[C@@H](CCCNC(=N)N)C(=O)N[C@H](Cc1ccc(I)cc1)C(=O)N[C@@H](CCCNC(=N)N)C(=O)N[C@@H](Cc1ccc(I)cc1)C(N)=O	Melanocortin receptor 4 (Homo sapiens, UniProt P32245, L106P)	class 1
CC(=O)N[C@@H](Cc1c[nH]c2ccccc12)C(=O)N[C@H](Cc1ccccc1)C(=O)N[C@@H](CCCN=C(N)N)C(=O)N[C@@H](Cc1c[nH]c2ccccc12)C(N)=O (Ac-W[dF]RW-NH2)	Melanocortin receptor 4 (Homo sapiens, UniProt P32245, L106P)	class 1
CC(=O)N[C@@H](Cc1c[nH]cn1)C(=O)N[C@H](Cc1ccc(Cl)cc1)C(=O)N[C@@H](CCCNC(=N)N)C(=O)N1Cc2ccccc2C[C@H]1C(N)=O	Melanocortin receptor 4 (Homo sapiens, UniProt P32245, L106P)	class 0
CC(=O)N[C@@H](Cc1cnc[nH]1)C(=O)N[C@H](Cc1ccccc1)C(=O)N[C@@H](CCCNC(=N)N)C(=O)N[C@@H](Cc1ccc([N+](=O)[O-])cc1)C(N)=O	Melanocortin receptor 4 (Homo sapiens, UniProt P32245, L106P)	class 0

* * *

- SUBJECT_OF_TEST: Melanocortin receptor 4 (Homo sapiens, UniProt P32245, I69T)
- TEST_NAME: Agonist activity at human melanocortin-4 receptor I69T mutant expressed in HEK293 cells co-transfected with CRE/beta-galactosidase reporter gene assessed as stimulatory response after 6 hrs
OBSERVATION_TYPE: EC50 (nM)

STRUCTURE_AS_SMILES	OBSERVATION_TYPE	VALUE_OBSERVED
CC(=O)N[C@@H](CCCNC(=N)N)C(=O)N[C@H](Cc1ccc(Cl)cc1)C(=O)N1Cc2ccccc2C[C@H]1C(=O)N[C@H](Cc1ccc([N+](=O)[O-])cc1)C(N)=O	EC50	5.2
CC(=O)N[C@@H](Cc1c[nH]cn1)C(=O)N[C@H](Cc1ccc(Cl)cc1)C(=O)N1Cc2ccccc2C[C@H]1C(=O)N[C@H](Cc1ccc([N+](=O)[O-])cc1)C(N)=O	EC50	4.3
CC(=O)N[C@@H](Cc1c[nH]cn1)C(=O)N[C@H](Cc1ccc(I)cc1)C(=O)N1Cc2ccccc2C[C@H]1C(=O)N[C@H](Cc1ccc([N+](=O)[O-])cc1)C(N)=O	EC50	3.8
CC(=O)N[C@@H](CCCNC(=N)N)C(=O)N[C@H](Cc1ccc(I)cc1)C(=O)N1Cc2ccccc2C[C@H]1C(=O)N[C@H](Cc1ccc([N+](=O)[O-])cc1)C(N)=O	EC50	4.1
